# STUDY TARGET: RORγt (Mus musculus, UniProt P51450, T352K)
# Sequence (P51450 with tags, fused parts or gaps T352K): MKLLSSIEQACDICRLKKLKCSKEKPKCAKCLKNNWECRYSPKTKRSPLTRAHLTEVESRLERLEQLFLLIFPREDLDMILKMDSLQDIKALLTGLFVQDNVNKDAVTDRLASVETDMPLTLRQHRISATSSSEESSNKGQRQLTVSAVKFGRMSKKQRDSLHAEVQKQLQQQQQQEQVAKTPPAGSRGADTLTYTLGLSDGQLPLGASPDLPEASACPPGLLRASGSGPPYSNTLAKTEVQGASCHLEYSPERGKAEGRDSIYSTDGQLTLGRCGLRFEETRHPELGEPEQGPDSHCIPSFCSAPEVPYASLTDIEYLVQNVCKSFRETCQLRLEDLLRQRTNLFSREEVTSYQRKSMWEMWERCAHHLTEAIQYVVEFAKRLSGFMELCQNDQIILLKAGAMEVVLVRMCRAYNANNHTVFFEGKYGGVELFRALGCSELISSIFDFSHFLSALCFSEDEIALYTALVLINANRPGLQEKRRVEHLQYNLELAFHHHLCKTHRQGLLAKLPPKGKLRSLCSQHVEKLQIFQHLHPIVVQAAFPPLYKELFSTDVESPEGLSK
# PROTOCOL SUMMARY: RORγt S2 cell Gal4-luciferase reporter assay
# CONDITION NOTES: IC50(μM), Drosophila S2 cells, Gal4-RORγt luciferase reporter, 20 hr
PARAMETER MEASURED: IC50

compound="COc1cc(O)c(C(CC(=O)N2CC(C)CC(C)C2)c2cccc(Br)c2)c(OC)c1 (stereo not shown)" study_target="RORγt (Mus musculus, UniProt P51450, T352K)" reported_measurement="1 to 10 µM"
compound="COc1cc(O)c(C(CC(=O)N2CCC(c3ccccc3)CC2)c2ccc(OC)c(OC)c2)c(OC)c1 (stereo not shown)" study_target="RORγt (Mus musculus, UniProt P51450, T352K)" reported_measurement="> 50 µM"
compound="Cc1cc(C)c(O)c(C(CC(=O)N2CCCC(C)C2)c2ccc3c(c2)OCO3)c1 (stereo not shown)" study_target="RORγt (Mus musculus, UniProt P51450, T352K)" reported_measurement="11 to 50 µM"
compound="CC1CC(C)CN(C(=O)CC(c2ccc3c(c2)OCO3)c2c(O)ccc3cccnc23)C1 (stereo not shown)" study_target="RORγt (Mus musculus, UniProt P51450, T352K)" reported_measurement="1 to 10 µM"
compound="Cc1ccc(C(CC(=O)N2CCCC(C)C2)c2ccc3c(c2)OCO3)c(O)c1 (stereo not shown)" study_target="RORγt (Mus musculus, UniProt P51450, T352K)" reported_measurement="11 to 50 µM"
compound="COc1cc(OC)c(C(c2ccccc2)C(C)(C)C(=O)N2CC(C)OC(C)C2)c(OC)c1 (stereo not shown)" study_target="RORγt (Mus musculus, UniProt P51450, T352K)" reported_measurement="1 to 10 µM"
compound="CCC(=O)C1CCCN(C(=O)CC(c2ccc3c(c2)OCO3)c2c(O)cc(OC)cc2OC)C1 (stereo not shown)" study_target="RORγt (Mus musculus, UniProt P51450, T352K)" reported_measurement="> 50 µM"

* * *

# STUDY TARGET: RORγt (Mus musculus, UniProt P51450, T352K)
# PROTOCOL SUMMARY: RORγt S2 cell Gal4-luciferase reporter assay
# CONDITION NOTES: S2 cell RORg IC50 μM, S2 cell reporter assay, listed for comparison
PARAMETER MEASURED: IC50

compound="COc1cc(O)c(C(CC(=O)N2CC(C)NC(C)C2)c2ccc3c(c2)OCO3)c(OC)c1 (centres unmarked)" reported_measurement="> 20 µM"
compound="COc1cc(O)c(C(CC(=O)N2CCCC(C)C2)c2ccccc2OC)c(OC)c1 (centres unmarked)" reported_measurement="> 20 µM"
compound="COc1cc(O)c(C(CC(=O)N2CCCC(C)C2)c2ccc(C(C)C)cc2)c(OC)c1 (centres unmarked)" reported_measurement="1 to 10 µM"
compound="COc1cc(O)c(C(CC(=O)N2CCCC(C)C2)c2ccc(C)cc2)c(OC)c1 (centres unmarked)" reported_measurement="1 to 10 µM"
compound="COc1ccc(C(CC(=O)N2CCCC(C)C2)c2c(O)cc(OC)cc2OC)cc1 (centres unmarked)" reported_measurement="1 to 10 µM"
compound="COCOc1cc(OC)cc(OC)c1C(CC(=O)N1CC(C)CC(C)C1)c1ccc2c(c1)OCO2 (centres unmarked)" reported_measurement="1 to 10 µM"
compound="COc1cc(O)c(C(CC(=O)N2CC(C)CC(C)C2)c2ccc(O)cc2)c(OC)c1 (centres unmarked)" reported_measurement="1 to 10 µM"
compound="COc1cc(O)c(C(CC(=O)N2CCCC(C)C2)c2ccccc2C)c(OC)c1 (centres unmarked)" reported_measurement="1 to 10 µM"
compound="CC1CCCN(C(=O)CC(c2ccc3c(c2)OCO3)c2c(O)ccc3ccccc23)C1 (centres unmarked)" reported_measurement="1 to 10 µM"
compound="COc1cc(O)c(C(CC(=O)N2CC(C)CC(C)C2)c2ccc(N(C)C)cc2)c(OC)c1 (centres unmarked)" reported_measurement="1 to 10 µM"
compound="COc1cc(OC)c(C(CC(=O)N2CC(C)CC(C)C2)c2ccc3c(c2)OCO3)c(OC)c1 (centres unmarked)" reported_measurement="1 to 10 µM"
compound="COc1cc(O)c(C(CC(=O)N2CC(C)CC(C)C2)c2ccc3c(c2)OCCO3)c(OC)c1 (centres unmarked)" reported_measurement="1 to 10 µM"
compound="COc1ccccc1C(CC(=O)N1C[C@H](C)C[C@H](C)C1)c1ccccc1 (some centres unmarked)" reported_measurement="> 20 µM"
compound="COc1cc(OC)c(C(CC(=O)N2CC(C)CC(C)C2)c2ccc3c(c2)OCO3)c(OCC(N)=O)c1 (centres unmarked)" reported_measurement="11 to 20 µM"
compound="COc1cc(OC)c(C(CC(=O)N2CC(C)CC(C)C2)c2ccc3c(c2)OCO3)c(OCC#N)c1 (centres unmarked)" reported_measurement="1 to 10 µM"
compound="COc1cc(OC)c(C(CC(=O)N2CCCC(C)C2)c2ccc3c(c2)OCO3)c(OCc2ccccc2)c1 (centres unmarked)" reported_measurement="1 to 10 µM"
compound="COc1cc(O)c(C(CC(=O)N2CCCC(C)C2)c2ccc3ccccc3c2)c(OC)c1 (centres unmarked)" reported_measurement="1 to 10 µM"
compound="CCOc1ccc(O)c(C(CC(=O)N2CCCC(C)C2)c2ccc3c(c2)OCO3)c1 (centres unmarked)" reported_measurement="11 to 20 µM"
compound="COc1ccc(C(CC(=O)N2CCCC(C)C2)c2c(O)cc(OC)cc2OC)c(OC)c1 (centres unmarked)" reported_measurement="> 20 µM"
compound="COc1cc(O)c(C(CC(=O)N2CCCC(C)C2)c2cccc3ccccc23)c(OC)c1 (centres unmarked)" reported_measurement="11 to 20 µM"
compound="COc1cc(OC)c(C(c2ccccc2)C(C)(C)C(=O)N2CC(C)CC(C)C2)c(OC)c1 (centres unmarked)" reported_measurement="1 to 10 µM"
compound="COc1cc(O)c(C(CC(=O)N2CCCC(C)C2)c2ccc(-c3ccccc3)cc2)c(OC)c1 (centres unmarked)" reported_measurement="11 to 20 µM"
compound="COc1cc(O)c(C(CC(=O)N2CCCC(C)C2)c2ccccc2)c(OC)c1 (centres unmarked)" reported_measurement="1 to 10 µM"

* * *

# STUDY TARGET: RORγt (Mus musculus, UniProt P51450, T352K)
# PROTOCOL SUMMARY: RORγt S2 cell Gal4-luciferase reporter assay
# CONDITION NOTES: read-out: Efficacy (%)
// n strictly below 90% in Emax; y otherwise

compound="CC(=O)Nc1ccc(C(CC(=O)N2CC(C)CC(C)C2)c2ccc3c(c2)OCO3)c(O)c1 (centres unmarked) [Compound 133]" study_target="RORγt (Mus musculus, UniProt P51450, T352K)" group=y
compound="COc1ccc(C(CC(=O)N2CCCC(C)C2)c2c(O)cc(OC)cc2OC)c(OC)c1 (centres unmarked) [Compound 69]" study_target="RORγt (Mus musculus, UniProt P51450, T352K)" group=n
compound="COc1cc(O)c(C(CC(=O)N2CCCC(C)C2)c2ccc(C(C)C)cc2)c(OC)c1 (centres unmarked) [Compound 64]" study_target="RORγt (Mus musculus, UniProt P51450, T352K)" group=y
compound="COc1ccccc1C(CC(=O)N1CCCCC1)c1ccccc1 (centres unmarked) [Compound 56]" study_target="RORγt (Mus musculus, UniProt P51450, T352K)" group=n
compound="COc1cc(O)c(C(CC(=O)N2CCCC(C)C2)c2ccc3c(c2)OCO3)c2ccccc12 (centres unmarked) [Compound 129]" study_target="RORγt (Mus musculus, UniProt P51450, T352K)" group=n
compound="COc1cc(OC)c(C(c2ccccc2)C(C)(C)C(=O)N2CC3CC4CC(C3)CC2C4)c(OC)c1 (centres unmarked) [Compound 151]" study_target="RORγt (Mus musculus, UniProt P51450, T352K)" group=y
compound="CC1CC(C)CN(C(=O)CC(c2ccc3c(c2)OCO3)c2c(O)ccc3cccnc23)C1 (centres unmarked) [Compound 146]" study_target="RORγt (Mus musculus, UniProt P51450, T352K)" group=y
compound="CC1CC(C)CN(C(=O)CC(c2ccc3c(c2)OCO3)c2cccc(F)c2O)C1 (centres unmarked) [Compound 143]" study_target="RORγt (Mus musculus, UniProt P51450, T352K)" group=n
compound="COc1cc(OC)c(C(CC(=O)N2CC(C)CC(C)C2)c2ccc3c(c2)OCO3)c(OC)c1 (centres unmarked) [Compound 134]" study_target="RORγt (Mus musculus, UniProt P51450, T352K)" group=y
compound="COc1cc(O)c(C(CC(=O)N2CC(C)CC(C)C2)c2ccc(O)cc2)c(OC)c1 (centres unmarked) [Compound 75]" study_target="RORγt (Mus musculus, UniProt P51450, T352K)" group=y
compound="CC1CC(C)CN(C(=O)CC(c2ccc(-n3cncn3)cc2)c2ccc3c(c2)OCO3)C1 (centres unmarked) [Compound 141]" study_target="RORγt (Mus musculus, UniProt P51450, T352K)" group=y
compound="COc1cc(O)c(C(CC(=O)N2CCCC(C)C2)c2ccccc2)c(OC)c1 (centres unmarked) [Compound 61]" study_target="RORγt (Mus musculus, UniProt P51450, T352K)" group=y
compound="CC1CCCN(C(=O)CC(c2ccc3c(c2)OCO3)c2c(O)ccc3ccccc23)C1 (centres unmarked) [Compound 118]" study_target="RORγt (Mus musculus, UniProt P51450, T352K)" group=y
compound="Cc1ccc(C(CC(=O)N2CCCC(C)C2)c2ccc3c(c2)OCO3)c(O)c1 (centres unmarked) [Compound 125]" study_target="RORγt (Mus musculus, UniProt P51450, T352K)" group=n
compound="COc1cc(OC)c(C(c2ccccc2)C(C)(C)C(=O)N2C3CCC2CC3)c(OC)c1 (centres unmarked) [Compound 153]" study_target="RORγt (Mus musculus, UniProt P51450, T352K)" group=n
compound="COc1cc(O)c(C(CC(=O)N2CC(C)CC(C)C2)c2cc(Cl)cc(Cl)c2)c(OC)c1 (centres unmarked) [Compound 97]" study_target="RORγt (Mus musculus, UniProt P51450, T352K)" group=n
compound="CC1CCCN(C(=O)CC(c2ccc3c(c2)OCO3)c2cc(C(C)C)ccc2O)C1 (centres unmarked) [Compound 114]" study_target="RORγt (Mus musculus, UniProt P51450, T352K)" group=n
compound="COc1cc(O)c(C(CC(=O)N2CC(C)CC(C)C2)c2ccc(C(=O)NC3CC3)cc2)c(OC)c1 (centres unmarked) [Compound 95]" study_target="RORγt (Mus musculus, UniProt P51450, T352K)" group=y
compound="CCOc1ccc(C(CC(=O)N2CCCC(C)C2)c2c(O)cc(OC)cc2OC)cc1 (centres unmarked) [Compound 62]" study_target="RORγt (Mus musculus, UniProt P51450, T352K)" group=y
compound="COc1cc(O)c(C(CC(=O)N2CC(C)CC(C)C2)c2cccc(OC(F)(F)F)c2)c(OC)c1 (centres unmarked) [Compound 93]" study_target="RORγt (Mus musculus, UniProt P51450, T352K)" group=y
compound="COc1cc(OC)c(C(c2ccccc2)C(C)(C)C(=O)N2CC3CCC2C3)c(OC)c1 (centres unmarked) [Compound 152]" study_target="RORγt (Mus musculus, UniProt P51450, T352K)" group=n
compound="Cc1ccc(C)c(C(CC(=O)N2CCCC(C)C2)c2ccc3c(c2)OCO3)c1O (centres unmarked) [Compound 113]" study_target="RORγt (Mus musculus, UniProt P51450, T352K)" group=n
compound="COc1cc(O)c(C(CC(=O)N2CCCC(C)C2)c2ccc3c(c2)OCO3)c(OC)c1 (centres unmarked) [Compound 3]" study_target="RORγt (Mus musculus, UniProt P51450, T352K)" group=y
compound="COc1cc(O)c(C(CC(=O)NC2CCC(C)CC2)c2ccc3c(c2)OCO3)c(OC)c1 (centres unmarked) [Compound 23]" study_target="RORγt (Mus musculus, UniProt P51450, T352K)" group=n
compound="COc1cc(O)c(C(CC(=O)N2CC(C)CC(C)C2)c2ccc(N(C)C)cc2)c(OC)c1 (centres unmarked) [Compound 72]" study_target="RORγt (Mus musculus, UniProt P51450, T352K)" group=y
compound="CCOc1ccc(O)c(C(CC(=O)N2CCCC(C)C2)c2ccc3c(c2)OCO3)c1 (centres unmarked) [Compound 119]" study_target="RORγt (Mus musculus, UniProt P51450, T352K)" group=y
compound="COc1cc(O)c(C(CC(=O)N2CCCC(C)C2)c2cccc3ccccc23)c(OC)c1 (centres unmarked) [Compound 66]" study_target="RORγt (Mus musculus, UniProt P51450, T352K)" group=n

Cited source for all entries: patent US10561666B2
